Target: T1, extracellular domain of mouse IL12RB1 (mIL12Rb1 ECD) (mouse, UniProt Q60837 20-565)
T1 construct: The immunogen was a fusion of the ECD with the human IgG1 hinge and Fc; also called mIL12Rb1 ECD antigen
T1 sequence: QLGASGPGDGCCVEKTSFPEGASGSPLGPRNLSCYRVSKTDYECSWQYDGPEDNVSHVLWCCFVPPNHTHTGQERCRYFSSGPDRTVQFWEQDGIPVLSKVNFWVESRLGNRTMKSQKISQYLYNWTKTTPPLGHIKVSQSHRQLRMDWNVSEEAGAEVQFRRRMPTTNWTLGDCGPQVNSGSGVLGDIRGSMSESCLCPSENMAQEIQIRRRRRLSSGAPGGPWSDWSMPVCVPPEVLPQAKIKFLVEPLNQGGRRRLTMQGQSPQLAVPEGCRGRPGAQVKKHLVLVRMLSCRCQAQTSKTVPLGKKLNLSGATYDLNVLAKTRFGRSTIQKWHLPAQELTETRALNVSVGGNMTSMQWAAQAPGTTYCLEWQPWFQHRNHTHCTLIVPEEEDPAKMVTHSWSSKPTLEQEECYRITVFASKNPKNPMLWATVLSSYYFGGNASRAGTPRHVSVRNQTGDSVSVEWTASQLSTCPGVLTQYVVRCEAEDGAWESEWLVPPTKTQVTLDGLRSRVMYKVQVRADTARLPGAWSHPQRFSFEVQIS
Assay: periplasmic extract ELISA (PE-ELISA) of phage clones, colorimetric
property-label: binding result

Q. # get_value(readout='binding result', item= mIL12Rb1_VHH7 (VHH, Phagemid clone with his-tag, periplasmic extract) VHH: QVQLQESGGGSVQAGGSLRLSCAVSGYDYCGYDVRWYRRAPGKEREFVSGIDSDGSTSYADSVKGRFTISQDNAENTSYLHMFSLKPEDTAMYYCKTESPAGESAWCRNFRGMDYWGKGTQVTVSS )
A. binds

Q. # get_value(readout='binding result', item= mIL12Rb1_VHH10 (VHH, Phagemid clone with his-tag, periplasmic extract) VHH: QVQLQESGGGSVQAGGSLRLSCAVSGYDYCGYDVRWYRQAPGKEREFVSGIDSDGSTSYADSVKGRFTISQDNAENTSYLHMFSLKPEDTAMYYCKTESPAGESAWCRNFRGMDYWGKGTQVTVSS )
A. binds
